- TEST_DETAILS: solvent given as SMILES
- ASSAY_SETUP: in c1cc(-c2cccc(-n3c4ccccc4c4ccccc43)c2)cc(-n2c3ccccc3c3ccccc32)c1
REPORTED_METRIC: fluorescence lifetime (ns)

Sample answers from the record:
| LINE_NOTATION | READOUT_UNIT | MEAS_VALUE |
| --- | --- | --- |
| CC(C)c1cc(C(C)C)c(B2c3cc(N4c5ccccc5Oc5ccccc54)ccc3N(c3ccccc3)c3ccc(N4c5ccccc5Oc5ccccc54)cc32)c(C(C)C)c1 | ns | 54 |
| CC(C)(C)c1ccc2c(c1)c1cc(C(C)(C)C)ccc1n2-c1cc(C(=O)c2ccncc2)cc(-n2c3ccc(C(C)(C)C)cc3c3cc(C(C)(C)C)ccc32)c1 | ns | 28.1 |
| N#Cc1c(-n2c3ccccc3c3ccccc32)c(-n2c3ccccc3c3ccccc32)c(-n2c3ccccc3c3ccccc32)c(-n2c3ccccc3c3ccccc32)c1-n1c2ccccc2c2ccccc21 | ns | 3.2 |
| O=c1c2ccccc2n2c3ccccc3c(=O)c3cc(-c4ccccc4)cc1c32 | ns | 5.47 |
| c1ccc2c(c1)Sc1ccc(-n3c4ccccc4c4ccccc43)cc1S2 | ns | 5.1 |

A = CC1(C)c2ccccc2N(c2ccc(-c3nc(C#N)c(C#N)nc3-c3ccc(N4c5ccccc5C(C)(C)c5ccccc54)cc3)cc2)c2ccccc21
B = CC1(C)c2ccccc2N(c2ccc3c(c2)c2cc(N4c5ccccc5C(C)(C)c5ccccc54)ccc2c2nc4ccccc4nc32)c2ccccc21
Prompt line: Determine, for A and B , which has the greater value of fluorescence lifetime. Answer by stating the label of the chosen item.
Response line: B
(B: 58 ns, A: 30 ns)
